Data provenance is patent US20260285853A1.

tested on: MYB mRNA; test: Gene panel canonical junction qPCR assay, decrease in CJ mRNA, Table 3; format: cell-based; details: decrease in CJ mRNA levels, canonical junction qPCR, gene panel
Items are presented alongside their recorded IC50.

COc1nc2c(C(=O)Nc3cc(F)c4nn(C)cc4c3)ccc(N3C[C@@H](C)NC4(CC4)C3)c2s1 :: 100 to 1000 nM

Quick one: IC50 of `COc1cc2nc(C)cn2cc1NC(=O)c1c(F)cc(N2CCC(NC3CC3)CC2)c2cc(C)nn12` ?
> 10000 nM

How about this compound: `COC(=O)NCc1nc(C)cn2cc(NC(=O)c3ccc(N4CCC(NC5CC5)CC4)c4cn(C)nc34)nc12`
> 10000 nM

====

Items are presented alongside their recorded pIC50.
tested on: MYB mRNA; experiment: Gene panel canonical junction qPCR assay, decrease in CJ mRNA, Table 3; assay type: cell-based; conditions: decrease in CJ mRNA levels, canonical junction qPCR, gene panel
pIC50: −log10 of the molar value.

CNCC1CN(c2ccc(C(=O)Nc3cn4cc(C)nc(CNS(C)(=O)=O)c4n3)c3nn(C)cc23)C1 :: < 5.00
Cc1nc2c(C(=O)Nc3cc(F)c4nn(C)cc4c3)ccc(N3C[C@H](C)N[C@@H](C)C3)c2s1 :: > 7.00
Cn1cc2cc(NC(=O)c3ccc(N4CCC(NC5CC5)CC4)c4cn(C)nc34)cc(CNC(=N)N)c2n1 :: 5.00 to 6.00
Cc1cn2cc(NC(=O)c3ccc(NC(=O)C4CCNC4)c4[nH]cnc34)cc(F)c2n1 (stereo not shown) :: 5.00 to 6.00
Cc1cn2cc(NC(=O)c3ccc(N4CCC(NC5CC5)CC4)c4c3OCO4)cc(F)c2n1 :: 5.00 to 6.00

# get_value(readout= pIC50, system= MYB mRNA) for `Cc1cn2cc(NC(=O)c3ccc(N4CC5CCC(C4)N5)c4cn(C)nc34)nc2c(CNS(C)(=O)=O)n1`
5.00 to 6.00

How about this compound: COc1nc2c(C(=O)Nc3ccc4nn(C)cc4c3F)ccc(N3C[C@H](C)N[C@@H](C)C3)c2s1 [Compound 727, 2,2,2-trifluoroacetate]
> 7.00

====

test system: MYB mRNA; experiment: Gene panel canonical junction qPCR assay, decrease in CJ mRNA, Table 3; type: cell-based; conditions: decrease in CJ mRNA levels, canonical junction qPCR, gene panel
experimental_endpoint: IC50

Quick one: IC50 of `CC(=O)NCc1nc(C)cn2cc(NC(=O)c3ccc(N4CCC(NC5CC5)CC4)c4cn(C)nc34)nc12` ?
> 10000 nM

How about this compound: `COc1nc2c(C(=O)Nc3cc4cn(C)nc4c(F)c3O)ccc(N3C[C@H](C)N[C@@H](C)C3)c2s1`
100 to 1000 nM

How about this compound: `COc1nc2c(C(=O)Nc3cc(C)c4nn(C)cc4c3)ccc(N3C[C@H](C)N[C@@H](C)C3)c2s1`
< 100 nM

How about this compound: `CCNC1CCN(c2ccc(C(=O)Nc3cc(CCC(=O)N(C)C)c4nn(C)cc4c3)c3nn(C)cc23)CC1`
> 10000 nM

How about this compound: `CCNC1CCN(c2ccc(C(=O)Nc3cn4cc(C)nc(CC(N)=O)c4n3)c3nn(C)cc23)CC1`
> 10000 nM

How about this compound: `COc1nc2c(N3CCC(NC4CC4)CC3)ccc(C(=O)Nc3cc(F)c4nc(C)cn4c3)c2o1`
100 to 1000 nM

How about this compound: `Cn1cc2cc(NC(=O)c3ccc(N4CCC(NC5CC5)CC4)c4cn(C)nc34)cc(CN)c2n1`
1000 to 10000 nM

How about this compound: `CCNC1CCN(c2ccc(C(=O)Nc3cc4cn(C)nc4cc3OC)c3nc(C)cn23)CC1`
< 100 nM

How about this compound: `COc1c(NC(=O)c2ncc(N3CCNCC3)c3cn[nH]c23)cn2cc(C)nc2c1F`
> 10000 nM

How about this compound: `COc1nc2c(C(=O)Nc3cc4cn(C)nc4cc3OC)ccc(N3CCC(NC4CC4)CC3)c2o1`
100 to 1000 nM

====

Items are presented alongside their recorded pIC50.
system: MYB mRNA; assay: Gene panel canonical junction qPCR assay, decrease in CJ mRNA, Table 3; type: cell-based; settings: decrease in CJ mRNA levels, canonical junction qPCR, gene panel
pIC50: −log10 of the molar value.

Example compounds with recorded pIC50:
Cc1cn2cc(NC(=O)c3ccc(N4CCC(NC5CC5)CC4)c4cn(C)nc34)nc2c(CNS(=O)(=O)CCO)n1 [Compound 752] :: < 5.00
COc1cc2c(N3C[C@H](C)N[C@@H](C)C3)ccc(C(=O)Nc3cc(F)c4nn(C)cc4c3)n2n1 [Compound 697] :: > 7.00
COc1nc2c(C(=O)Nc3cc(F)c4nn(C)cc4c3)ccc(N3CCN[C@@H](C)C3)c2s1 [Compound 766] :: > 7.00

Now let's try a different one.
# get_value(readout= pIC50, system= MYB mRNA) for Cn1cc2cc(NC(=O)c3ccc(N4CCC(NC5CC5)CC4)c4cn(C)nc34)cc(CNS(C)(=O)=O)c2n1 [Compound 735, 2,2,2-trifluoroacetate]
5.00 to 6.00

====

system: HTT mRNA; assay: Gene panel canonical junction qPCR assay, decrease in CJ mRNA, Table 3; format: cell-based; settings: decrease in CJ mRNA levels, canonical junction qPCR, gene panel
pIC50: −log10 of the molar value.
experimental_endpoint: pIC50

Example compounds with recorded pIC50:
Cn1cc2cc(NC(=O)c3ccc(N4CCC(NC5CC5)CC4)c4cn(C)nc34)cc(CCO)c2n1 [Compound 879] :: < 5.00
Cn1cc2cc(NC(=O)c3ccc(N4CCC(NC5CC5)CC4)c4cn(C)nc34)cc(CNc3nccs3)c2n1 [Compound 881] :: 5.00 to 6.00
CCNCc1nc(C)cn2cc(NC(=O)c3ccc(N4CCC(NC5CC5)CC4)c4cn(C)nc34)nc12 [Compound 812] :: < 5.00

Now let's try a different one.
Quick one: pIC50 of CCNC1CCN(c2ccc(C(=O)Nc3cn4cc(C)nc(C)c4n3)c3nc(OC)sc23)CC1 [Compound 670] ?
5.00 to 6.00

====

Items are presented alongside their recorded IC50.
test system: MYB mRNA; assay: Gene panel canonical junction qPCR assay, decrease in CJ mRNA, Table 3; format: cell-based; details: decrease in CJ mRNA levels, canonical junction qPCR, gene panel

Example molecules with recorded IC50:
Cc1cn2cc(NC(=O)c3ccc(N4CCC(NC5CC5)CC4)c4cn(C)nc34)nc(CNS(C)(=O)=O)c2n1 [Compound 837] :: < 100 nM
COc1nc2c(C(=O)Nc3cc(F)c4nn(C)cc4c3)ccc(N3C[C@H](C)NC4(CC4)C3)c2s1 [Compound 741] :: < 100 nM
COc1nc2c(C(=O)Nc3cc(F)c4nn(C)cc4c3)ccc(N3CCN(C)CC3)c2s1 [Compound 789] :: < 100 nM

# get_value(readout= IC50, system= MYB mRNA) for Cn1cc2cc(NC(=O)c3ccc(N4CCC(N(C(=O)OC(C)(C)C)C5CC5)CC4)c4cn(C)nc34)cc(CN)c2n1 [Compound 815]
> 10000 nM

How about this molecule: COc1nc2c(C(=O)Nc3cc(F)c4nc(C)cn4c3)ccc(N3CCC(NC4CC4)CC3)c2o1 [Compound 690]
< 100 nM

How about this molecule: C[C@H]1CN(c2ccc(C(=O)Nc3cc(F)c4nn(C)cc4c3)c3sc(OCC4CCNC4)nc23)C[C@H](C)N1 (some centres unmarked) [Compound 797, bis(2,2,2-trifluoroacetate)]
> 10000 nM

====

tested on: HTT mRNA; assay: Splicing RT-qPCR assay (THP), Table 2A; format: cell-based; settings: Table 2A (THP), CJ mRNA decrease, read-out: HTT CJ (decrease in canonical junction mRNA, IC50)
experimental_endpoint: IC50

Example compounds with recorded IC50:
COc1c(NC(=O)c2c(F)cc(N3CCC(NC4CC4)C4(CC4)C3)c3cn(C)nc23)cn2cc(C)nc2c1F (stereo not shown) :: 1 to 10 µM
CCNC1CCN(c2ccc(C(=O)Nc3cc(F)c4nc(C)cn4c3)c3nn(C)nc23)CC1 :: 0.1 to 1 µM
COCCNc1cc(N2CCC(NC3CC3)CC2)c2cn(C)nc2c1C(=O)Nc1cc2cn(C)nc2cc1OC :: > 10 µM
COc1cc2nn(C)cc2cc1C#Cc1ccc(N2CCC(NC3CC3)CC2)c2cn(C)nc12 :: > 10 µM
COc1cc2nn(C)cc2cc1NC(=O)c1ccc(N2CCC3(CCN3)CC2)c2cn(C)nc12 :: 1 to 10 µM

Quick one: IC50 of `COc1cn2nc(C)nc2cc1NC(=O)c1ccc(N2CCC(NC3CC3)CC2)c2cn(C)nc12` ?
> 10 µM

How about this compound: `COc1c(NC(=O)c2c(F)cc(N3CCC(NC4CC4)CC3)c3cn(C)nc23)cn2cc(C)nc2c1F`
< 0.1 µM
